The values you see were collected from the supplement of paper PMC10567573.

B1: VPS39 (parent)
chain: TTLLKCYLHTNVALVAPLLRLENN

Variants of: B1
methodNotes: protein stability index of a GFP-peptide fusion (GPS, HEK-293T) (PSI 1-6); higher = more stable;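 note: lentivirally expressed fusions sorted by FACS into six bins by GFP to DsRed ratio, PSI derived from sequencing read proportions per bin multiplied by bin number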
particulars: c terminus: a fixed tail appended
observedProperty: protein stability index
Please state the value as a number alone, without comment.

Observe how each entry below is paired with its result.
T2R; 2.85
L21G; 1.6
V12D; 1.97
V12K; 1.45

### Prompt Check the records and state protein stability index for C6I
### Response 1.15

### Prompt Check the records and state protein stability index for E22S
### Response 2.82

### Prompt Check the records and state protein stability index for L8P
### Response 1.13

### Prompt Check the records and state protein stability index for L8T
### Response 2.5

### Prompt Check the records and state protein stability index for A13W
### Response 3.55

### Prompt Check the records and state protein stability index for N24V
### Response 1.5

### Prompt Check the records and state protein stability index for L8S
### Response 1.44

### Prompt Check the records and state protein stability index for R20I
### Response 3.11

### Prompt Check the records and state protein stability index for E22H
### Response 2.49
